Molecular target: human CaSR (Homo sapiens, UniProt P41180, E1011Q)
Construct: expressed in transfected cells; host or cells: 293E cells (EBNA1-expression HEK293 cells, ATCC No. CRL-10852), transient transfection of hCaSR/pcDNA3.1
Sequence (P41180 20-1078 E1011Q): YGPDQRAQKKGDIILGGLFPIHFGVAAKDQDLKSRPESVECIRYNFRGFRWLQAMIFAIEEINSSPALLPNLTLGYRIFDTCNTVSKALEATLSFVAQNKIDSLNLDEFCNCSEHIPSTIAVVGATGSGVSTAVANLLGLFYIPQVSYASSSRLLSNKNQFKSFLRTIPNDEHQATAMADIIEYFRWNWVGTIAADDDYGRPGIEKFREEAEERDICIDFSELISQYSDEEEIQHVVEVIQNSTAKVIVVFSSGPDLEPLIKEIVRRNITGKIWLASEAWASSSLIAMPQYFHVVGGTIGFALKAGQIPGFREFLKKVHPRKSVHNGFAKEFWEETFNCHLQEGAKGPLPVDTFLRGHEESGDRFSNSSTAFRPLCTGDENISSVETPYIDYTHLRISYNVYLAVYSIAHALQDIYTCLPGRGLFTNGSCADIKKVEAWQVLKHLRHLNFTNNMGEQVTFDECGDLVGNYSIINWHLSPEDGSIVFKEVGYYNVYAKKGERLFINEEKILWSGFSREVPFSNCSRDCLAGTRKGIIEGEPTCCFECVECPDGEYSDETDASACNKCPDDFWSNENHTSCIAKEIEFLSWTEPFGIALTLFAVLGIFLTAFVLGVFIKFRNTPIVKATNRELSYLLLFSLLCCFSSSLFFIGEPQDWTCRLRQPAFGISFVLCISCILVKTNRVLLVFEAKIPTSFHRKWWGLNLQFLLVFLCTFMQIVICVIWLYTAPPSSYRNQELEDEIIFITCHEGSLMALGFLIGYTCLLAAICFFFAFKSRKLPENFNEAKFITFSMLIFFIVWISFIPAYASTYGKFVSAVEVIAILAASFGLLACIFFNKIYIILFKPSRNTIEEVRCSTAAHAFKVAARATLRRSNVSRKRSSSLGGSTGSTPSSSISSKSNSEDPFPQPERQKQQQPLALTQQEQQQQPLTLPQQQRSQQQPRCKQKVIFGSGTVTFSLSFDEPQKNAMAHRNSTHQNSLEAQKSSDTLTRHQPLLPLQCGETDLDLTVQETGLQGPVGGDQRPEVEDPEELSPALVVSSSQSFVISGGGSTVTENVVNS
Test: Evaluation (1) and (2) of CaSR agonist activity (Ca2+ fluorescence in transfected 293E cells)
Assay type: cell-based
Settings: 293E cells transfected with hCaSR/pcDNA3.1; Calcium 4/5 Assay Kit; methods (1) and (2)
Description: 293E Cells (EBNA1-expression HEK293 cells, ATCC No. CRL-10852) were cultivated in DMEM/Ham's-F12 (3.15/ml Glucose-containing Dulbecco's modified Eagle medium; available from NAKARAI TESK Company) containing 10% fetal calf serum in the presence of 200 μg/ml of G418 (available from Genetisine Company). […]
parameter-measured: log10 of EC50 (log10 of the value in nM)
Please be aware that the numbers have been log10-transformed from EC50 in nM.

The cases that follow already have their log10 of EC50 on record.
compound: N[C@@H](CCC(=O)N[C@@H]1CSC[C@H](C(=O)O)NC1=O)C(=O)O
log10 of EC50: 3.29
//
compound: N[C@@H](CCC(=O)N[C@@H](CS)C(=O)O)C(=O)O [γ-Glu-Cys, reference compound]
log10 of EC50: 2.66
//
compound: N[C@@H](CCC(=O)N[C@H]1CSC[C@@H](C(=O)O)NC1=O)C(=O)O
log10 of EC50: 1.72
//
compound: N[C@@H](CCC(=O)N[C@@H]1CSC[C@@H](C(=O)O)NC1=O)C(=O)O
log10 of EC50: 4.30

The reported log10 of EC50 value, human CaSR (Homo sapiens, UniProt P41180, E1011Q), for N[C@@H](CCC(=O)N[C@H]1CSCCC(C(=O)O)NC1=O)C(=O)O (some centres unmarked) reads 3.27

The reported log10 of EC50 value, human CaSR (Homo sapiens, UniProt P41180, E1011Q), for N[C@@H](CCC(=O)NC1CCCC(C(=O)O)NC1=O)C(=O)O (some centres unmarked) reads 2.30

The reported log10 of EC50 value, human CaSR (Homo sapiens, UniProt P41180, E1011Q), for `N[C@@H](CCC(=O)N[C@H]1CSC[C@H](C(=O)O)NC1=O)C(=O)O` reads 4.16

The reported log10 of EC50 value, human CaSR (Homo sapiens, UniProt P41180, E1011Q), for `C[C@@H]1SC[C@H](NC(=O)CC[C@H](N)C(=O)O)C(=O)N[C@@H]1C(=O)O` reads 2.76
